Data origin, for the record: patent US20250136552A1

biological target: Cav2.3 (Homo sapiens); test: Human Cav2.3 channel calcium-influx assay; format: cell-based; settings: HEK-293 T-Rex/Kir2.1 cells with inducible Cav2.3e-β4-α2δ1; Fluo8 fluorescence; 8-point dose response from 30 μM; no pluronic acid; read-out: Cav2.3 (pIC50) (converted)
Sequence (Q15878 1-2270 isoform Q15878-3): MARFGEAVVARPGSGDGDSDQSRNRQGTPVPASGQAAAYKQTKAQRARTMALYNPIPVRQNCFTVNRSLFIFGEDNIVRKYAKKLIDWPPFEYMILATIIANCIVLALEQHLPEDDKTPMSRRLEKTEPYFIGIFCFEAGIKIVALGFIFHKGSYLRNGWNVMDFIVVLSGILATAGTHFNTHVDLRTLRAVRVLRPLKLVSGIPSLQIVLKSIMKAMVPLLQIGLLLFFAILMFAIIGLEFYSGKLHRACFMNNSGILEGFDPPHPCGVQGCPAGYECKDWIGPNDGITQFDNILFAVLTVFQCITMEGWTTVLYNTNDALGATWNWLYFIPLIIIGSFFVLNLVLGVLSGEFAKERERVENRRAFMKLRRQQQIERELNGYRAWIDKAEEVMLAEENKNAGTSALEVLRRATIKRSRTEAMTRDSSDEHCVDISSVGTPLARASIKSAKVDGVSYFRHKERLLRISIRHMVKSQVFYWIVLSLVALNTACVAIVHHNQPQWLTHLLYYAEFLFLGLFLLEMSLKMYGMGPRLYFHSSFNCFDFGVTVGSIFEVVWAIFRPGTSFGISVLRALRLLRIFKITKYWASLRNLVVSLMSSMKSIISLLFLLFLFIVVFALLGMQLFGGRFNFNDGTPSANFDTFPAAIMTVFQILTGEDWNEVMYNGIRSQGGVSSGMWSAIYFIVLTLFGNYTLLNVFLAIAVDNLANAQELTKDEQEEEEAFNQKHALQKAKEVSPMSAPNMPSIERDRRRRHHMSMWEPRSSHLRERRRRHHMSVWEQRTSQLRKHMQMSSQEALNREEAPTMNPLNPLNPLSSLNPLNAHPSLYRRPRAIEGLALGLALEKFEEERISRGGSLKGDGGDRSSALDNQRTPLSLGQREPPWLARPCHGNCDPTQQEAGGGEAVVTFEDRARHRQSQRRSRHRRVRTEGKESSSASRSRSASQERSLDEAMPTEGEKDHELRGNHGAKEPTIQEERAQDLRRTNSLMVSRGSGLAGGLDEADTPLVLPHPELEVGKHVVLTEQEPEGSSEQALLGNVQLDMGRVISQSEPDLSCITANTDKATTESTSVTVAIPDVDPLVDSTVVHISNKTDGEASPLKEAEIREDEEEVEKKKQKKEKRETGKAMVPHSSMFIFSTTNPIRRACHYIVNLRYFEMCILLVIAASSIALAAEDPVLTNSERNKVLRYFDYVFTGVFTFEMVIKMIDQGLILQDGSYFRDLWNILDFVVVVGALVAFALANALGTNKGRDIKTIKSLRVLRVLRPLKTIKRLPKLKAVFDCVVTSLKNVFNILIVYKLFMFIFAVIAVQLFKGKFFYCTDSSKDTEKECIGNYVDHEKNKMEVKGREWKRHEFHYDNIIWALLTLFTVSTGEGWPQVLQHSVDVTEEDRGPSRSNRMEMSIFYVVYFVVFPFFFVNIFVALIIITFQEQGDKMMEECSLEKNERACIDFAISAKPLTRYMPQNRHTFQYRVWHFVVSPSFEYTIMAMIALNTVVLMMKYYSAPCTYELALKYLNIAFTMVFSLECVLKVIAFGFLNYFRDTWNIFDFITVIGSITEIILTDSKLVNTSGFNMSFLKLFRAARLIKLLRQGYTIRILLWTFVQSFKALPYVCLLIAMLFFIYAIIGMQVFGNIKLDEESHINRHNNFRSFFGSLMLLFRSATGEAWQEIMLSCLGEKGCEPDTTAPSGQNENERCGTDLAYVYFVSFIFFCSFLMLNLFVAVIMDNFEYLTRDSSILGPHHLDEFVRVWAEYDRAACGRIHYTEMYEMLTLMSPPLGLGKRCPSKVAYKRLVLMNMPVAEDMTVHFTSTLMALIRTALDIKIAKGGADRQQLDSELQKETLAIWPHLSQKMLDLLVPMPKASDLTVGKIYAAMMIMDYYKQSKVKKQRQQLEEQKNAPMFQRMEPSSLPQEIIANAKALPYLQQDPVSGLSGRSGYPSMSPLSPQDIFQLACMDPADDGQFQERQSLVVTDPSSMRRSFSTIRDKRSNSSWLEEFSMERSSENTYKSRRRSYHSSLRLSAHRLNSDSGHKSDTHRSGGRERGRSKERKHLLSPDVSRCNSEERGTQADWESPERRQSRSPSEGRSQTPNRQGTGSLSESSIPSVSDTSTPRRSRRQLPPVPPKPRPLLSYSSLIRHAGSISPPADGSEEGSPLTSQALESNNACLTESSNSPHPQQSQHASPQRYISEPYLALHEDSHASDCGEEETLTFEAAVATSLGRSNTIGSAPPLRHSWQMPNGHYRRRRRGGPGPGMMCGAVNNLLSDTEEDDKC
Consider the following compounds; for each one, report its IC50.
Answers are plain numbers, in µM.

Answer for every listed entry: what is its IC50? The entries follow.
1. CC(C)C(=O)N1CCc2ccc(S(=O)(=O)N(C)[C@@H](c3ccc(F)cc3)C(F)(F)F)cc2C1
2. CCN([C@@H](C)c1ccccc1)S(=O)(=O)c1ccc2c(c1)CN(C(=O)C1CC1)CC2
3. CCN([C@@H](C)c1ccc(F)cc1)S(=O)(=O)c1ccc2c(c1)CCN(C(=O)C(C)C)C2
4. CCN([C@@H](C)c1ccc(F)cc1)S(=O)(=O)c1ccc2c(c1)CN(C(=O)C(C)C)CC2
5. CCN([C@H](C)c1ccccc1)S(=O)(=O)c1ccc2c(c1)CCN(C(=O)C1CC1)C2

Result:
[3.72, 0.724, 1.74, 0.537, 3.63]
